Target: SCD1 (Homo sapiens)
Construct: host or cells: S. cerevisiae ole1Δ strain (W303 pdr1Δ pdr3Δ background), plasmid pRS316 with TDH3 promoter and CYC1 terminator
Sequence (O00767 whole entry): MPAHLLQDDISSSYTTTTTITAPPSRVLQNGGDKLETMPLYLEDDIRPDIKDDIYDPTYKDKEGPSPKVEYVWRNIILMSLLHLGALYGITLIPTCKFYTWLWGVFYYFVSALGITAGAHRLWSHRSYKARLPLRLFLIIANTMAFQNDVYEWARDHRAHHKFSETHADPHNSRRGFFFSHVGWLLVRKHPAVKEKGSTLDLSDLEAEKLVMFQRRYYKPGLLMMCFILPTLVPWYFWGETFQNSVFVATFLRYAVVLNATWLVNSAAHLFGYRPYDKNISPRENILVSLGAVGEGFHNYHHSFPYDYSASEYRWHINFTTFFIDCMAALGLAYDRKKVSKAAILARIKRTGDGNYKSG
Experiment: Growth inhibition of humanized yeast strain expressing SCD1 as sole desaturase
Format: cell-based
Conditions: humanized yeast strain, 40 h
A collection of compounds and their measured IC50

Solved entries (count: 3):
>>> result("CC(C)n1ncc2ccc(-c3noc(N4CCn5ccnc5C4)n3)cc21")
"> 45 µM"
>>> result("CC(C)C(=O)N1CCC(c2nc(-c3ccc(N4CCOCC4)cc3)no2)CC1")
"> 45 µM"
>>> result("O=C(C1CCC1)N1CCN(c2noc(-c3ccc4cnn(C5COC5)c4c3)n2)CC(F)(F)C1")
"≥ 45 µM"

## Input So what does the record say about IC50 for `CC(C)C(=O)N1CCC(c2noc(-c3ccnc(N4CCC(F)(F)C4)c3)n2)CC1` ?
## Output > 45 µM

## Input So what does the record say about IC50 for `CC(C)n1ncc2ccc(-c3noc(C4CCN(C(=O)C56CCC(F)(CC5)CC6)CC4)n3)cc21` ?
## Output > 45 µM

## Input So what does the record say about IC50 for `O=C(N1CCC(c2noc(-c3ccc4cnn(C5COC5)c4c3)n2)CC1)C1(F)CC1` ?
## Output 15.6 µM

## Input So what does the record say about IC50 for `Cc1nn(C)c2cc(-c3nc(C4CCN(C(=O)OC5CC5)CC4)no3)ccc12` ?
## Output > 45 µM

## Input So what does the record say about IC50 for CC(C)(C)OC(=O)N1CCC(c2noc(-c3cccc(C4CCOC4)n3)n2)CC1 (centres unmarked) ?
## Output > 45 µM
